molecular target: Potassium voltage-gated channel subfamily KQT member 2/member 3 (Rattus norvegicus, UniProt O88943+O88944); experiment: Activation of rat Kv7.2/7.3 expressed in CHOK1 cells
Sequence (O88943 whole entry): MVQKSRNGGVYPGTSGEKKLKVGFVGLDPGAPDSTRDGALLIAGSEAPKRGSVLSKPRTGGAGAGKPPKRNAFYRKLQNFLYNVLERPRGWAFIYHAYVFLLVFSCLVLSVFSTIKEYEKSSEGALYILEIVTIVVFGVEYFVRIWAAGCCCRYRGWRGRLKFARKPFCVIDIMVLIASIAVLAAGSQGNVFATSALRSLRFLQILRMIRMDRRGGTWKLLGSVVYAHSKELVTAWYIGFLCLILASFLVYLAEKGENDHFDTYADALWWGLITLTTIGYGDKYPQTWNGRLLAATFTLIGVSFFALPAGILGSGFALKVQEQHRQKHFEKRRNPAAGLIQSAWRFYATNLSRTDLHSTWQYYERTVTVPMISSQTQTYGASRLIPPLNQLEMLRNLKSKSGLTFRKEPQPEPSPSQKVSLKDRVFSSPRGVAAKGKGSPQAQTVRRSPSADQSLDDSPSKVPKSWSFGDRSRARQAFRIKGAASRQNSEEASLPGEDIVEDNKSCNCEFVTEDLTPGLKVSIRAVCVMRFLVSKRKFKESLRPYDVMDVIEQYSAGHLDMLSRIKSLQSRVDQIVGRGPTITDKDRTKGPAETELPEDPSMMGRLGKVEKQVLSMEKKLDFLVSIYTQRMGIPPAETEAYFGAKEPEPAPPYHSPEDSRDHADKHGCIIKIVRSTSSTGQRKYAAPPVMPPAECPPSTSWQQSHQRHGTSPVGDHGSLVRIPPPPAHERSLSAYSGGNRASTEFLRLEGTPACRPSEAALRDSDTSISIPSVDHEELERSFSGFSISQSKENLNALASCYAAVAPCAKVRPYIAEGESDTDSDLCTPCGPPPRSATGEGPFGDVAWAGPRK
Sequence (O88944 whole entry): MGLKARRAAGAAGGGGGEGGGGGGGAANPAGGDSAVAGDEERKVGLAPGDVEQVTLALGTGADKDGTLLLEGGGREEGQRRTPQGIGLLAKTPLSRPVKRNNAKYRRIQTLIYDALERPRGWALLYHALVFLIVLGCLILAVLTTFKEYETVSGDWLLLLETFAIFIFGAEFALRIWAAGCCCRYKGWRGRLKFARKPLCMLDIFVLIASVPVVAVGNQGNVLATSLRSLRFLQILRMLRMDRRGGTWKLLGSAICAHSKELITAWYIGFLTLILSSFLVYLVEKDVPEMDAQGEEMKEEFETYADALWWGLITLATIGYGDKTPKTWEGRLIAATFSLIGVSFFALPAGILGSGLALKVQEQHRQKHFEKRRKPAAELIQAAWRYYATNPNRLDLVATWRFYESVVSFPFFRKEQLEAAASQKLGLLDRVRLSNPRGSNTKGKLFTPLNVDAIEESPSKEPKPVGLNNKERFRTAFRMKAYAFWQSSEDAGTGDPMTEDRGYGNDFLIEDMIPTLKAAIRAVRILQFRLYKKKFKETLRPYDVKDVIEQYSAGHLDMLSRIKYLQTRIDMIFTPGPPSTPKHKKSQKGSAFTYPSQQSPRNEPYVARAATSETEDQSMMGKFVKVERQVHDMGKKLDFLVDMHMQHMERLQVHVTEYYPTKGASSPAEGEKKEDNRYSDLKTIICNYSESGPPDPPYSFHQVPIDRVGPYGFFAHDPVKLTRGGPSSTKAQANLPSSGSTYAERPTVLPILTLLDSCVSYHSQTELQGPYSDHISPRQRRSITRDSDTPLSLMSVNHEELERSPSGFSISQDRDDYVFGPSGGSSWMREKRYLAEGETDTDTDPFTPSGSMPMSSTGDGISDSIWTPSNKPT
Observation Type: EC50 (nM)
Give a bare numeral; the unit nM is implied.

Look up EC50: `COc1nc(N2CCC(OC)CC2)nc(OC)c1NC(=O)CC(C)(C)C`
294

---

biological target: Potassium voltage-gated channel subfamily KQT member 4 (Homo sapiens, UniProt P56696); test: Activation of human Kv7.4 expressed in CHOK1 cells
Sequence (P56696 whole entry): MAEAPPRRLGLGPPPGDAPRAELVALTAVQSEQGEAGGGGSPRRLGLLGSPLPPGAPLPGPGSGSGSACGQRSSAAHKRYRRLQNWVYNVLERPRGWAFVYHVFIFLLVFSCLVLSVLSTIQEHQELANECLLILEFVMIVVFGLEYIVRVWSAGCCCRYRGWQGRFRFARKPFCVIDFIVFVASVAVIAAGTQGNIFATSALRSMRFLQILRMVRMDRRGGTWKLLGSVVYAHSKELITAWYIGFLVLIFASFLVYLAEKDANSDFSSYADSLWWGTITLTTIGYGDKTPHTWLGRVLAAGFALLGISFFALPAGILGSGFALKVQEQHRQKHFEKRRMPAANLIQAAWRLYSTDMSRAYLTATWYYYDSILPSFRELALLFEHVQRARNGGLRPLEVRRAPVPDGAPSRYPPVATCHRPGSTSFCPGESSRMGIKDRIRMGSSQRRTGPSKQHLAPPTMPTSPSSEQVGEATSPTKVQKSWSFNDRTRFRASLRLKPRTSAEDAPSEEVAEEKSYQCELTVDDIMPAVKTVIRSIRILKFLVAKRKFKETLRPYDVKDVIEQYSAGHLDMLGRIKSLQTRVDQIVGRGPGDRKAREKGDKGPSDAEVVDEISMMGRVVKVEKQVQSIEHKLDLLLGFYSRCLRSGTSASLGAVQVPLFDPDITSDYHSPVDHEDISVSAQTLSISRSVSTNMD
Observation Type: EC50 (nM)
Give a bare numeral; the unit nM is implied.

Look up EC50: `COc1nc(N2CCC(OC)CC2)nc(OC)c1NC(=O)CC(C)(C)C`
625

---

assay: Intrinsic clearance in human liver microsomes measured over 1 hr in presence of NADPH regenerating system; type: ADME; settings: read-out: CLH
For each record, check the reported CLint scaled: if it is below 20 mL/min/kg write met, else write not met.

These solved cases illustrate the format of a correct answer.
COc1nc(N2CCSCC2)nc(OC)c1NC(=O)CC(C)(C)C	not met
COc1nc(N2CCCCC2)nc(OC)c1NC(=O)CC(C)(C)C	not met
COc1nc(N2CCC(OC)CC2)nc(OC)c1NC(=O)CC(C)(C)C	met
COc1nc(N2CCCOCC2)nc(OC)c1NC(=O)CC(C)(C)C	not met
COc1nc(N2CCOCC2)nc(OC)c1NC(=O)CC(C)(C)C	met
COc1nc(N2CC(F)(F)C2)nc(OC)c1NC(=O)CC(C)(C)C	met
COCCN(C)c1nc(OC)c(NC(=O)CC(C)(C)C)c(OC)n1	not met
COc1nc(N2CCC(F)(F)CC2)nc(OC)c1NC(=O)CC(C)(C)C	not met

Turning now to a further record.
Is CLint scaled of CCOC(=O)Nc1ccc(NCc2ccc(F)cc2)cc1N [EZOGABINE] strictly below 20 mL/min/kg?
met

---

biological target: Voltage-gated potassium channel, KQT; KCNQ2(Kv7.2)/KCNQ3(Kv7.3) (Homo sapiens, UniProt O43525+O43526); assay: Activation of human Kv7.2/7.3 expressed in CHOK1 cells
Sequence (O43526 whole entry): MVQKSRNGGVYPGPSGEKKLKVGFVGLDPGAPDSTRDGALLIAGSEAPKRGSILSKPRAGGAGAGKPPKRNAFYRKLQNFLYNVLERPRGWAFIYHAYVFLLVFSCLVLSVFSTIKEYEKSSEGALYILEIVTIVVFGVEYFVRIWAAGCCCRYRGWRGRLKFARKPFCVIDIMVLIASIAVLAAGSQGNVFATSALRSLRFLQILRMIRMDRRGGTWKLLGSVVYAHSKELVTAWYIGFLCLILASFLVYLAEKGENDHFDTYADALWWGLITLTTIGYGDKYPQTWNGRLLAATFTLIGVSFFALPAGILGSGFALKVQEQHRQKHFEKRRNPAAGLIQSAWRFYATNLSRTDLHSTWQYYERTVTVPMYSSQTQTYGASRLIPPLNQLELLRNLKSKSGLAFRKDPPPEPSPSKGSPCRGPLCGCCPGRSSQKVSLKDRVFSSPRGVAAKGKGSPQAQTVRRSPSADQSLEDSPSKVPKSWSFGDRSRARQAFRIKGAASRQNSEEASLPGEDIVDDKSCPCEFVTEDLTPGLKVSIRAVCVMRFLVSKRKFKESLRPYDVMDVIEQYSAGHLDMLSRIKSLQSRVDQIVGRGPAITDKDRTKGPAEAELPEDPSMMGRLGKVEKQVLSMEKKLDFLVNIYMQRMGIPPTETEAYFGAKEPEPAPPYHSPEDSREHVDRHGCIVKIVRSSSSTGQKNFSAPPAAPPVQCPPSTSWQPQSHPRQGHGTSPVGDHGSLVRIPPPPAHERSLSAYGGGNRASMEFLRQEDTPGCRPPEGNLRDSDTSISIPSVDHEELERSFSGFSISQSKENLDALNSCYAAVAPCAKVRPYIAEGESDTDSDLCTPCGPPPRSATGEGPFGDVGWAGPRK
Sequence (O43525 whole entry): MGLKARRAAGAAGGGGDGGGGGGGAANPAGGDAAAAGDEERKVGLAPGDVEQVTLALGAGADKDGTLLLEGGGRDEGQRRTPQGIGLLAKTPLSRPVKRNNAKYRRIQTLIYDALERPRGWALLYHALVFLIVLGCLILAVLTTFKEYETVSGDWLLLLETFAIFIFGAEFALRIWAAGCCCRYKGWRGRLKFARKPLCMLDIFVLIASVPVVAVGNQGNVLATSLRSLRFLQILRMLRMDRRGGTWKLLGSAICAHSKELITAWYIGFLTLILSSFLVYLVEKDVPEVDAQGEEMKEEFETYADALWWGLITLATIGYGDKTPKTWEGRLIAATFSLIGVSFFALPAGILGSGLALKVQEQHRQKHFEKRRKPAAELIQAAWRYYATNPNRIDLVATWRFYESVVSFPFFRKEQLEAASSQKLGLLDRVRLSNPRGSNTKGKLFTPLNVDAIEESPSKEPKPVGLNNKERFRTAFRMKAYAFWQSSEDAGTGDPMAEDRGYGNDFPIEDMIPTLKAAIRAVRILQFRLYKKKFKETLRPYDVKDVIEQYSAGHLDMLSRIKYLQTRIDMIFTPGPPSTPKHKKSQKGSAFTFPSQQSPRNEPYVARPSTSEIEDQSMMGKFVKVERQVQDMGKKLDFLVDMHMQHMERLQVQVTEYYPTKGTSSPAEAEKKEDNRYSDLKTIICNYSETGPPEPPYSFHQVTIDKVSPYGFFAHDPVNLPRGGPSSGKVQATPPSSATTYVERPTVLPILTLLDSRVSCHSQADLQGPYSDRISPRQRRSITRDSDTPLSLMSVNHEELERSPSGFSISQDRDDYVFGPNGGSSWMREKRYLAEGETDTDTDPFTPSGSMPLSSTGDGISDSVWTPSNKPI
// pEC50 lookup, one value per entry
Note: pEC50 values are expressed as the negative base-10 logarithm of concentration in M.

Please review the entries below; each comes with its answer.
COc1nc(N2CCC(OC)CC2)nc(OC)c1NC(=O)CC1CCCCC1	6.79
COc1nc(N2CC(OC)C2)nc(OC)c1NC(=O)CC(C)(C)C	6.02
COc1nc(N2CCC(OC)CC2)nc(OC)c1NC(=O)CC(C)(C)C	6.48
COc1nc(N2CCCOCC2)nc(OC)c1NC(=O)CC(C)(C)C	7.21
COc1nc(N2CCOCC2)nc(OC)c1NC(=O)CC(C)(C)C	6.79
COCCN(C)c1nc(OC)c(NC(=O)CC(C)(C)C)c(OC)n1	6.69

Look up pEC50: `COc1nc(N2CCC(OC)CC2)nc(OC)c1NC(=O)CCC1CCCC1`
7.40

Look up pEC50: `COc1nc(N2CC(F)(F)C2)nc(OC)c1NC(=O)CC(C)(C)C`
6.96

Look up pEC50: `COc1nc(N2CCC(F)(F)CC2)nc(OC)c1NC(=O)CC(C)(C)C`
7.30

Look up pEC50: `COc1nc(N2CCCCC2)nc(OC)c1NC(=O)CC(C)(C)C`
7.19

Look up pEC50: `COc1nc(N2CCSCC2)nc(OC)c1NC(=O)CC(C)(C)C`
7.62
